Exercise: state measured Ki for each of the compounds provided.
- tgt: Rhesus PDE2A3 (Macaca mulatta, UniProt B3VTJ2)
- Sequence (B3VTJ2 1-941): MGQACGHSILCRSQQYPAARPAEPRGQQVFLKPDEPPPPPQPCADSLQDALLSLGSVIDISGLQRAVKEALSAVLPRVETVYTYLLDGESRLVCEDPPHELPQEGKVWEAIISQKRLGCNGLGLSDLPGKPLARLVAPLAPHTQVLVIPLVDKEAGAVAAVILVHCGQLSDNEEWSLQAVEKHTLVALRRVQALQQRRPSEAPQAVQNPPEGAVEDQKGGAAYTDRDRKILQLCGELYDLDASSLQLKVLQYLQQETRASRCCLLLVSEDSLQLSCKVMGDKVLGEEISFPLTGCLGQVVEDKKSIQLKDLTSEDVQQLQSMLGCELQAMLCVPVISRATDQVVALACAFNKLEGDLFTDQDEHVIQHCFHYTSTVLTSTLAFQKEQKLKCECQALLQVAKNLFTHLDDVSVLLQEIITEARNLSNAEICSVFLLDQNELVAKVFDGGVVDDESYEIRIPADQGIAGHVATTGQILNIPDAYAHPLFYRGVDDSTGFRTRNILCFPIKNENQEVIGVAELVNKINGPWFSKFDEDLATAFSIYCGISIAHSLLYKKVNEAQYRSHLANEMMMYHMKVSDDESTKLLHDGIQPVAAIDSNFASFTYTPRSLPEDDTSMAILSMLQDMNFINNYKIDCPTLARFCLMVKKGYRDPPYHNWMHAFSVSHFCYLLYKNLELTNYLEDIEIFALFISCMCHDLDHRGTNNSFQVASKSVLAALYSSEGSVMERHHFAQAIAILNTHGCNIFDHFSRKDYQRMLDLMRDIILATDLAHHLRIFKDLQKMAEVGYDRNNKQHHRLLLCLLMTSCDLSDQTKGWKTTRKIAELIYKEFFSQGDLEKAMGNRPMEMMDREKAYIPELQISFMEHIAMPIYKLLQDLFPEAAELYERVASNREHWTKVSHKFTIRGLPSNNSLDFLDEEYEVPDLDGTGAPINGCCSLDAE
- assay_procedure: PDE2 fluorescence polarization (IMAP FP) inhibition assay, rhesus PDE2A3
- Format: biochemical, rhesus macaque
- conditions: Lab B; read-out: Rhesus PDE2 Ki (nM) - Lab B
Numbers only, in nM.

Here are 5 compounds together with their reported answers.
# sample_smiles, Ki [nM]
data = [
    ("CN(C)c1nc(C(=O)N[C@@H](c2ccc(C(C)(F)F)cc2)C(C)(C)C)cc(=O)[nH]1", 0.11),
    ("C[C@@H](NC(=O)c1cc(=O)[nH]c(N(C)C)n1)c1ccc(C(F)(F)F)c(F)c1F", 3.5),
    ("CN(C)c1nc(C(=O)NC2(c3ccc(C(C)(C)C)cc3)CC2)cc(=O)[nH]1", 3.4),
    ("Cc1cc(C(F)(F)F)ccc1C(C)(C)NC(=O)c1cc(=O)[nH]c(N(C)C)n1", 2.3),
    ("CN(C)c1nc(C(=O)NC2(c3ccc(C(F)(F)F)c(F)c3)CC2)cc(=O)[nH]1", 0.8),
]

For every item in the list below, what is its measured Ki?
1. CC(C)[C@@H](NC(=O)c1cc(=O)[nH]c(N2CCCC2)n1)c1ccc(SC(F)(F)F)cc1
2. CN(C)c1nc(C(=O)NC(C)(C)c2ccc(S(F)(F)(F)(F)F)cc2)cc(=O)[nH]1

result:
1: 0.15; 2: 224
